Test: Oral bioavailability in Wistar han rat at 2 mg/kg
Format: ADME, organism-based
Settings: in vivo
Experimental Readout: bioavailability (%)

C[C@H](c1ccc(F)cc1)N1C(=O)O[C@](Cc2ccccc2)(c2nc3cc(-c4cccnc4)ccc3[nH]2)C1=O 11
C[C@H](c1ccc(F)cc1)N1C(=O)O[C@](Cc2ccccc2)(c2nc3cc(NS(C)(=O)=O)ccc3[nH]2)C1=O 6
C[C@H](c1ccc(F)cc1)N1C(=O)O[C@](Cc2ccccc2)(c2nc3c(NS(C)(=O)=O)cccc3[nH]2)C1=O 15

A: C[C@H](c1ccc(F)cc1)N1C(=O)O[C@](Cc2ccccc2)(c2nc3cc(-c4cc[nH]n4)ccc3[nH]2)C1=O
B: C[C@H](c1ccc(F)cc1)N1C(=O)O[C@](Cc2ccccc2)(c2nc3c(C(F)(F)F)cccc3[nH]2)C1=O
Incoming: Lowest bioavailability? choose A or B Write down the label attached to your selection.
Outgoing: A
(A: 27%, B: 44%)

1: C[C@H](c1ccc(F)cc1)N1C(=O)O[C@](Cc2ccccc2)(c2nc3cc(C(F)(F)F)ccc3[nH]2)C1=O
2: C[C@H](c1ccc(F)cc1)N1C(=O)O[C@](Cc2ccccc2)(c2nc3cc(Cl)ccc3[nH]2)C1=O
3: Cc1nocc1-c1ccc2[nH]c([C@@]3(Cc4ccccc4)OC(=O)N([C@H](C)c4ccc(F)cc4)C3=O)nc2c1
Incoming: Sequence the entries by bioavailability, beginning with the highest number. Answer by writing out the labels in the requested order.
Outgoing: 3, 1, 2

Data origin: ChEMBL document CHEMBL3576820
